# ASSAY_INFO: Antiplatelet activity in rat platelet rich plasma assessed as drug level causing inhibition of ADP-stimulated platelet aggregation pretreated 2 mins before ADP challenge
# Assay type: functional
For each of the compounds below, state its Activity.

Any idea what Activity was measured for O=C1c2cccc(O)c2C(=O)c2c(O)cccc21 [DANTHRON] ?
>0.25 mg/mL

Any idea what Activity was measured for O=C1c2ccccc2C(=O)c2c1ccc(O)c2O [ATHRAQUINONES A] ?
>0.25 mg/mL

Any idea what Activity was measured for O=C1c2ccc(O)cc2C(=O)c2ccc(O)cc21 [ANTHRAFLAVICACID] ?
>0.25 mg/mL

Each recorded value in this set is attributed to ChEMBL document CHEMBL1151154.
